Read-out: Cyclin Dependent Kinase Inhibitor 1A (CDKN1A), CDKN1A (gene 1026)
measurement.notes: LTEA_HepaRG_CDKN1A: Life Technologies and Expression Analysis (LTEA) Assay for Cyclin Dependent Kinase Inhibitor 1A (CDKN1A) using HepaRG (AID 2283450)
condition.notes: mRNA level, 48 h; actives raise or lower the signal
Active and inactive are the calls of the source. How the source made its calls: active means hit-call score of the fitted dose curve at least 0.9, where 1 is the maximum; inactive means score below 0.9.
Respond using exactly one of the listed classes: T for active, F for inactive

>>> print(df.to_string())
                               compound  category
0  CCOP(=S)(OCC)SCn1c(=O)oc2cc(Cl)ccc21         F

[in] Name the outcome recorded for OC(c1ccc(Cl)cc1)(c1cncnc1)c1ccccc1Cl (stereo unspecified) in the assay.
[out] T

[in] Please indicate how the test categorized "COC(=O)C=C(C)OP(=O)(OC)OC" .
[out] F

[in] Name the outcome recorded for "COC(=O)N(OC)c1ccccc1COc1ccn(-c2ccc(Cl)cc2)n1" in the assay.
[out] T

[in] In this assay, the call recorded for CC1COC(Cn2cncn2)(c2ccc(Oc3ccc(Cl)cc3)cc2Cl)O1 (stereo unspecified) was what?
[out] T

[in] What classification did "COc1cnc(OC)n2nc(NS(=O)(=O)c3c(OCC(F)F)cccc3C(F)(F)F)nc12" end up with in this test?
[out] F

FYI, the data here is from PubChem BioAssay (EPA / NIEHS).
